# credit: patent US20220195023A1

target_system: (NPNA)3 (Plasmodium falciparum)
test_method_notes: SPR, antibody on chip
pKd: −log10 of the molar value.
Listed here are binders together with their documented pKd.
assay_metric: pKd

INSERT INTO results (binder, data_value) VALUES
  ('AB-007050 (antibody, V domains shown) VH: QMQLVESGGGVVQPGRSLRLSCTASGFTFSTYAMHWVRQSPGQGLQWVAVISQHSTNKYYEDSVRGRFTISRDNSKNTLYLQMNSLRAEDTAVYYCARDGYSSSFFDFWGQGTLVTVSS VL: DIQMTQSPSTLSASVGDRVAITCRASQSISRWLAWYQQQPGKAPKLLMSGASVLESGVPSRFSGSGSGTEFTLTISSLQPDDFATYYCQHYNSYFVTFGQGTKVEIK', 6.57),
  ('AB-007061 (antibody, V domains shown) VH: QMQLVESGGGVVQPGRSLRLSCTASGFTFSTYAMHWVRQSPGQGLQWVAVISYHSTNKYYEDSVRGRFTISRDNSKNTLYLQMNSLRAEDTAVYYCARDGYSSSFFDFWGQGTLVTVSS VL: DIQMTQSPSTLSASVGDRVAITCRASQSIDRWLAWYQQQPGKAPKLLMSGASVLESGVPSRFSGSGSGTEFTLTISSLQPDDFATYYCQHYNSYFVTFGQGTKVEIK', 8.17),
  ('AB-007069 (antibody, V domains shown) VH: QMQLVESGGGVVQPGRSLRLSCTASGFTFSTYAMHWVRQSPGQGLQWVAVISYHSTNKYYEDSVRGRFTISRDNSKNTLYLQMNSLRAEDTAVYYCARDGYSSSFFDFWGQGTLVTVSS VL: DIQMTQSPSTLSASVGDRVAITCRASQSISRWLAWYQQQPGKAPKLLMSVASVLESGVPSRFSGSGSGTEFTLTISSLQPDDFATYYCQHYNSYFVTFGQGTKVEIK', 6.69);
